# subject-of-test: BtsuOBP83a
# assay-overview: Fluorescence competitive binding assay (1-NPN probe), recombinant BtsuOBP83a
# condition-summary: BtsuOBP83a 2 μmol/L, 50 mmol/L Tris-HCl pH 7.4; 1-NPN 2–20 μmol/L; Scatchard; read-out: dissociation constants (Kd) for 1-NPN
readout-label: Kd (µM)
Number only, in µM; omit the unit.

Consider the compound shown here: c1ccc(Nc2cccc3ccccc23)cc1 [1-NPN, N-phenyl-1-naphthylamine, reference compound] What is its recorded Kd?
5.48

====

# subject-of-test: BtsuOBP83b
# assay-overview: Fluorescence competitive binding assay (1-NPN probe), recombinant BtsuOBP83b
# Set-up: species or system Bactrocera tsuneonis
# condition-summary: relative dissociation constant calculated from IC50; competition with 1-NPN; ligand 4–32 μmol/L; pH 7.4; read-out: Ki (μM) OBP83b
Reported Ki values are given for each entry in this list.

Missing value: Ki, BtsuOBP83b, entry CC1=CCCC1 . Fill in?
> 50 µM

Missing value: Ki, BtsuOBP83b, entry C#Cc1cccc(N)c1 . Fill in?
> 50 µM

Missing value: Ki, BtsuOBP83b, entry CCCCCCCCCCCCF . Fill in?
> 50 µM

Missing value: Ki, BtsuOBP83b, entry CCC/C=C/COC(=O)CCC [trans-2-Hexenyl Butyrate] . Fill in?
28.5 µM

Missing value: Ki, BtsuOBP83b, entry Cc1ccc(C(C)C)cc1O . Fill in?
> 50 µM

Missing value: Ki, BtsuOBP83b, entry CCCCCC(=O)OCC [Ethyl hexanoate] . Fill in?
> 50 µM

====

# subject-of-test: BtsuOBP83b
# assay-overview: Fluorescence competitive binding assay (1-NPN probe), recombinant BtsuOBP83b
# condition-summary: BtsuOBP83b 2 μmol/L, 50 mmol/L Tris-HCl pH 7.4; 1-NPN 2–20 μmol/L; Scatchard; read-out: dissociation constants (Kd) for 1-NPN
readout-label: Kd (µM)
Number only, in µM; omit the unit.

Consider the compound shown here: c1ccc(Nc2cccc3ccccc23)cc1 [1-NPN, N-phenyl-1-naphthylamine, reference compound] What is its recorded Kd?
6.92

====

# subject-of-test: BtsuOBP83b
# assay-overview: Fluorescence competitive binding assay (1-NPN probe), recombinant BtsuOBP83b
# Design: species or system Bactrocera tsuneonis
# condition-summary: relative dissociation constant calculated from IC50; competition with 1-NPN; ligand 4–32 μmol/L; pH 7.4; read-out: Ki (μM) OBP83b
Reported Ki values are given for each entry in this list.

compound="CCCCCCCCOC(C)=O [Octyl acetate]" readout_label=Ki value_reported="> 50 µM"
compound="CCOC(C)=O [Ethylacetate]" readout_label=Ki value_reported="33 µM"
compound="CCc1ccco1 [2-Ethylfuran]" readout_label=Ki value_reported="> 50 µM"
compound="CCC/C=C/COC(=O)CC [trans-2-Hexenyl propionate]" readout_label=Ki value_reported="> 50 µM"
compound="CCOC(=O)C(C)CC (stereo not shown) [Ethyl 2-methylbutyrate]" readout_label=Ki value_reported="> 50 µM"

Consider the compound shown here: CCCCCC(=O)OCCC [Propyl Hexanoate] What is its recorded Ki?
> 50 µM

Consider the compound shown here: CC(=O)OCCC(C)C [Isoamyl acetate] What is its recorded Ki?
33.5 µM

====

# subject-of-test: BtsuOBP83b
# assay-overview: Fluorescence competitive binding assay (1-NPN probe), recombinant BtsuOBP83b
# Parameters: species or system Bactrocera tsuneonis
# condition-summary: relative dissociation constant calculated from IC50; competition with 1-NPN; ligand 4–32 μmol/L; pH 7.4; read-out: Ki (μM) OBP83b
Reported Ki values are given for each entry in this list.

Here is how some molecules turned out for Ki.
molecule="CCCCC/C=C/C(=O)OCC [Ethyl trans-2-octenoate]" value_reported="> 50 µM"
molecule="CC(C)=CCC/C(C)=C\\CO [Nerol]" value_reported="> 50 µM"
molecule="CC(=O)OC/C=C(/C)CCC=C(C)C [Neryl acetate]" value_reported="> 50 µM"

Consider the molecule shown here: CCCCCC=O [Hexanal] What is its recorded Ki?
33.7 µM

Consider the molecule shown here: CC(C)c1ccccc1 [Cumene] What is its recorded Ki?
> 50 µM

Consider the molecule shown here: C=CC(C)(O)CC/C=C(\C)CCC=C(C)C (stereo not drawn) [trans-Nerolidol] What is its recorded Ki?
> 50 µM

Consider the molecule shown here: C=C1CC/C=C(\C)CC[C@@H]2[C@@H]1CC2(C)C [beta-Caryophyllene] What is its recorded Ki?
> 50 µM

Consider the molecule shown here: CCc1ccccc1 [Ethylbenzene] What is its recorded Ki?
> 50 µM

Consider the molecule shown here: CC(C)CCO [Isopentyl alcohol] What is its recorded Ki?
40.2 µM

Consider the molecule shown here: CC1=CCC2CC1C2(C)C (stereo not drawn) [alpha-Pinene] What is its recorded Ki?
> 50 µM

Consider the molecule shown here: CC1=CC[C@@H](C(C)(C)O)CC1 [(L)-alpha-terpineol] What is its recorded Ki?
> 50 µM

Consider the molecule shown here: C=C(C)[C@H]1CC=C(C)C(=O)C1 [d-Carvone] What is its recorded Ki?
> 50 µM
